Test system: E-tag antibody
test name: ELISA analysis of phage on antibody raised against ETAG (positive control)
condition description: peptide binding to E-tag antibody; phage ELISA units read at 405 nm
The entries below are paired with their reported ETAG (OD).
measure: ETAG (OD)

- substance: "VLCLE#ALGLSGLGWRVVVGP (VLCLEALGLSGLGWRVVVGP; DGI-2-20F-PP-G4; listed as Escherichia coli)"
  target under test: "E-tag antibody"
  units symbol: "OD"
  number: 25.6
- substance: "TPDRCLIYSSIQCLLEYSARRGSAD (DGI-2-20C-3-C65; listed as Escherichia coli)"
  target under test: "E-tag antibody"
  units symbol: "OD"
  number: 7.4
- substance: "LFRFSGTGMASLPCVGWHLV (DGI-2-20F-PP-B6; listed as Escherichia coli)"
  target under test: "E-tag antibody"
  units symbol: "OD"
  number: 37.0
- substance: "QGSAHVVRPPGVYDVPWKVGMFFHPQNWPNSWGRAYFRSG (DGI-2-40F-3-D12; listed as Escherichia coli)"
  target under test: "E-tag antibody"
  units symbol: "OD"
  number: 7.3
- substance: "DDIVCLFQFCTMFCWLDMGW (DDIVCLFQFCIMFCWLDMGW; DGI-2-20F-PP-H3; listed as Escherichia coli)"
  target under test: "E-tag antibody"
  units symbol: "OD"
  number: 3.7
- substance: "RNWLDKDCVWMGDCGARAGE (DGI-2-20F-4-E3; listed as Escherichia coli)"
  target under test: "E-tag antibody"
  units symbol: "OD"
  number: 16.9
- substance: "LSHPMSPLRAASQMALTQGV (DGI-2-20R-4-H7; listed as Escherichia coli)"
  target under test: "E-tag antibody"
  units symbol: "OD"
  number: 14.1
- substance: "DYKGRTMTSPIMSALPVYDRLHGIGSRGQNMD (DYKGRTMTSPIMSALPVYDRLHGAIGSRGQNMD; DGI-2-20C-3-B3; listed as Escherichia coli)"
  target under test: "E-tag antibody"
  units symbol: "OD"
  number: 7.7
- substance: "GLRACDTYLGFCVGARRIDD (DGI-2-20F-3-B102; listed as Escherichia coli)"
  target under test: "E-tag antibody"
  units symbol: "OD"
  number: 18.0
- substance: "QSNVWVLVGVIMQGVWYQRQHYCVYVMLLSDQVSVLLAVA (DGI-2-40F-3-B6; listed as Escherichia coli)"
  target under test: "E-tag antibody"
  units symbol: "OD"
  number: 1.8
- substance: "RISVGQCGTSRCGGGRRGGG (DGI-2-20F-PP-D1; listed as Escherichia coli)"
  target under test: "E-tag antibody"
  units symbol: "OD"
  number: 3.0
- substance: "PAMGHCMQVLGPVLEGRSRDQVGR (DGI-2-20R-4-G6; listed as Escherichia coli)"
  target under test: "E-tag antibody"
  units symbol: "OD"
  number: 11.5
- substance: "TVKFQGVVQERSRIAGFRYCGDHAVSWGLAGCPALRDKLQ (DGI-2-40F-3-C424; listed as Escherichia coli)"
  target under test: "E-tag antibody"
  units symbol: "OD"
  number: 14.8
- substance: "QMIFSKGNWLAHPEGGVALGLSRESQLFRSCREFGYCMGPM [DGI-2-40F-3-C6]"
  target under test: "E-tag antibody"
  units symbol: "OD"
  number: 10.1
- substance: "QLDCLVWGLPGLRCDRPLEQ (DGI-2-20R-3-B10; listed as Escherichia coli)"
  target under test: "E-tag antibody"
  units symbol: "OD"
  number: 17.0
- substance: "PKDGAAFKGSDFIQGGQTVMERAPALWWRDGGGQWEAPST (DGI-2-40F-3-B72; listed as Escherichia coli)"
  target under test: "E-tag antibody"
  units symbol: "OD"
  number: 10.4
- substance: "SWRLWVSGELQGDRRKGLRG (DGI-2-20R-3-B7; listed as Escherichia coli)"
  target under test: "E-tag antibody"
  units symbol: "OD"
  number: 11.7
- substance: "GIMQVAWGWREMTRLWDLGMA (GIMQVAWGWREWRLWDLGMA; DGI-2-20R-3-C6; listed as Escherichia coli)"
  target under test: "E-tag antibody"
  units symbol: "OD"
  number: 20.3
- substance: "RGVNSDMPRLYICRADGQGQ (DGI-2-20F-PP-H6; listed as Escherichia coli)"
  target under test: "E-tag antibody"
  units symbol: "OD"
  number: 18.9
- substance: "VCSGGKGTWLEIPDRVRSST (DGI-2-20F-PP-A22; listed as Escherichia coli)"
  target under test: "E-tag antibody"
  units symbol: "OD"
  number: 44.1
- substance: "GMWIRPNGHMELQGGYTARS (GMWIRPNGHMFLQGGYTARS; DGI-2-20R-4-G8; listed as Escherichia coli)"
  target under test: "E-tag antibody"
  units symbol: "OD"
  number: 14.5
- substance: "QVGGMTQVGATVLSVVTGRGSCDGEDAWYPPGVTVGLGLC (DGI-2-40F-4-F97; listed as Escherichia coli)"
  target under test: "E-tag antibody"
  units symbol: "OD"
  number: 14.0
- substance: "TLVTEGNIKGSVKAHKDIGVWQLWWDWLSVTDSETVGRVSH (TLVTEGNKGSVKAHKDIGVWQLWWDWLSVTDSETVGRVSH; DGI-2-40F-3-D10; listed as Escherichia coli) [DGL-2-40F-3-D10]"
  target under test: "E-tag antibody"
  units symbol: "OD"
  number: 10.3
- substance: "TPVAISIPAGVCSTSVCGRD (DGI-2-20F-PP-C11; listed as Escherichia coli)"
  target under test: "E-tag antibody"
  units symbol: "OD"
  number: 3.2
- substance: "WRARSSGYLFALTPNFGVPHIPSSALRRMH.GLMARDLRPV [DGI-2-40F-3-C10]"
  target under test: "E-tag antibody"
  units symbol: "OD"
  number: 7.7
- substance: "LTWGPQFGSLQVYSRHRGLP (DGI-2-20R-4-E4; listed as Escherichia coli)"
  target under test: "E-tag antibody"
  units symbol: "OD"
  number: 18.1
- substance: "CRNFGVIWGAGWVSPGCEDJ (CRNFGVIWGAGWVSPGCEDI; not fully specified; non-natural residue J; DGI-2-20F-3-A1; listed as Escherichia coli) [DGI-2-20E-3-A1]"
  target under test: "E-tag antibody"
  units symbol: "OD"
  number: 14.3
- substance: "DYKTCVSQHVHPLFGEYFYHKVTHMSILSPTFRVTSLYG.K (DYKTCVSQHVHPLFGEYFYHKVTHMSILSPTFRVTSLYGK; DGI-2-40F-3-B95; listed as Escherichia coli)"
  target under test: "E-tag antibody"
  units symbol: "OD"
  number: 5.4

---

target under test: DGI-2 (Homo sapiens)
Construct: encompassed the entire DGI-2 open reading frame (ORF); His-tag of vector pIVEX2.3-MCS (inferred from the vector and from the reverse primer lacking a stop codon); made in house; host or cells: cell-free in vitro translation (Rapid Translation System RTS, Roche; E. coli lysate)
Sequence (Q15004 1-111): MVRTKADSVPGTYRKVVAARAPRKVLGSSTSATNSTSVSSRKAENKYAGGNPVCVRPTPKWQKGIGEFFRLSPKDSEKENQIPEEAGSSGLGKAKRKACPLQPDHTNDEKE
test name: ELISA analysis of phage on DGI-2 polypeptide (specific binding)
condition description: binding to DGI-2 polypeptide (specific binding); phage ELISA units read at 405 nm
Protocol: To verify that the selected target binders bound to DGI-2, Elisa assays were performed with recombinant DGI-2. DGI-2 was subcloned and expressed using conventional methods as described below. Protein yields were satisfactory, but most of protein was found in inclusion bodies. […] For analysis of individual target binders, colonies were picked and phage prepared as described above using helper phage, M13KO7. […] Plates were analyzed at 405 nm. […]
The entries below are paired with their reported DGI-2 (OD).
measure: DGI-2 (OD)

- monomer sequence: "WAGSTDLWQLWSLWVKPELR (DGI-2-20F-3-B7; listed as Escherichia coli)"
  number: 1.6
- monomer sequence: "RNWLDKDCVWMGDCGARAGE (DGI-2-20F-4-E3; listed as Escherichia coli)"
  number: 3.8
- monomer sequence: "VVRQGCMAFSGLCSGVTESE (DGI-2-20R-3-C8; listed as Escherichia coli)"
  number: 5.6
- monomer sequence: "FRVALLSVSAGPCEGSGNT (DGI-2-20F-PP-H7; listed as Escherichia coli)"
  number: 1.8
- monomer sequence: "GGGRESWGGGWFMGWGSGAG (DGI-2-20R-3-A6; listed as Escherichia coli)"
  number: 5.8
- monomer sequence: "TPVAISIPAGVCSTSVCGRD (DGI-2-20F-PP-C11; listed as Escherichia coli)"
  number: 2.4
- monomer sequence: "SLFERSARSRYHGSPDCNGS (DGI-2-20F-PP-A3; listed as Escherichia coli)"
  number: 2.8
- monomer sequence: "DRHRAFVAEGLDGFRHSTGV (DGI-2-20F-PP-D4; listed as Escherichia coli)"
  number: 2.6
- monomer sequence: "FGRDGDGIQRRQGGFSWVGDR (DGI-2-20F-PP-E2; listed as Escherichia coli)"
  number: 1.7
- monomer sequence: "GGDLGEQGVQLCPDVVRGGSL (DGI-2-20F-PP-A7; listed as Escherichia coli)"
  number: 2.6
- monomer sequence: "SIILAGCVWVMPCGQNLGGV (DGI-2-20F-PP-C4; listed as Escherichia coli)"
  number: 3.0
- monomer sequence: "VSGVPDGSMRAAQLASGYWC (DGI-2-20F-PP-G2; listed as Escherichia coli)"
  number: 2.4
